Listing of entries alongside the reported Relative selectivity for A2a v. A3.
Target: human adenosine receptor sub-type A3 (Homo sapiens (Human), UniProt P0DMS8)
Sequence (P0DMS8 whole entry): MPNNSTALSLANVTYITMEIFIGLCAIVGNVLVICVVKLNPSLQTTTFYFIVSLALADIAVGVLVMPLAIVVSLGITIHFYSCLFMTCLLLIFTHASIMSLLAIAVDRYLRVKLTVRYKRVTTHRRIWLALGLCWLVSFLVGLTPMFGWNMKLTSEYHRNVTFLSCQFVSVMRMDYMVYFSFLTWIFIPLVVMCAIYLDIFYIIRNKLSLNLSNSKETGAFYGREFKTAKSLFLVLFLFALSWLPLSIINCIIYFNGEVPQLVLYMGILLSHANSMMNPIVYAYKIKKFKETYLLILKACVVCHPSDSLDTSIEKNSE
Experiment: Affinity for human adenosine A3 receptor by SPR
Assay type: binding
Details: from SPR IC50 values, rounded to 2 significant figures
Hey, just send me the number, nothing else.

1. COc1ccccc1Cn1cc2c(N)nc(-c3ccc(C)o3)nc2n1 [Comparative Example 1, reference compound]; 900
2. COc1ccccc1Cn1cc2c(N)nc(-c3ccsn3)nc2n1; 10000
3. COc1ccccc1Cn1cc2c(N)nc(-c3cnco3)nc2n1; 23000
4. Nc1nc(-c2ccsn2)nc2nn(Cc3cccc(Cl)c3)cc12; 1100
5. COc1cccc(Cn2cc3c(N)nc(-c4cnco4)nc3n2)c1; 4300

*Q* Quickly give me recorded Relative selectivity for A2a v. A3 for COc1cccc(Cn2cc3c(N)nc(-c4ccsn4)nc3n2)c1
*A* 12000

*Q* Quickly give me recorded Relative selectivity for A2a v. A3 for Cc1ccc(Cn2cc3c(N)nc(-c4cnccn4)nc3n2)cc1
*A* 4900

*Q* Quickly give me recorded Relative selectivity for A2a v. A3 for Cc1ccc(Cn2cc3c(N)nc(-c4ccsn4)nc3n2)cc1C(F)(F)F
*A* 6300

*Q* Quickly give me recorded Relative selectivity for A2a v. A3 for Cc1cccc(Cn2cc3c(N)nc(-c4ccsn4)nc3n2)c1
*A* 10000
